Species: Rattus norvegicus
Experiment Description: Agonist activity in rat aortic ring contraction assay
Type: functional
Condition Summary: Aorta
Positions of bridges follow the written chain, without caps; N, C: chain ends. Non-standard residues stand in square brackets, D forms with d. Residues, ends and D or L forms follow the SMILES beside them. Phe(4-COOH) = N[C@@H](Cc1ccc(C(=O)O)cc1)C(=O)O; Phe(4-tBu) = CC(C)(C)c1ccc(C[C@H](N)C(=O)O)cc1; Oic = O=C(O)[C@@H]1C[C@@H]2CCCC[C@@H]2N1; pGlu = O=C1CC[C@@H](C(=O)O)N1; Aib = CC(C)(N)C(=O)O
Readout Kind: EC50 (µM)

# Compound, Qualifier, Recorded Number
data = [
    ("CC(C)[C@H](NC(=O)[C@@H]1CSSC[C@H](NC(=O)[C@@H](N)CC(=O)O)C(=O)N[C@@H](Cc2ccccc2)C(=O)N[C@@H](Cc2c[nH]c3ccccc23)C(=O)N[C@@H](CCCCN)C(=O)N[C@@H](Cc2ccc(C(=O)O)cc2)C(=O)N1)C(=O)O (H-DCFWK[Phe(4-COOH)]CV-OH; disulfide 2-7)", "=", 1.7),
    ("CC(C)[C@H](NC(=O)[C@@H]1CSSC[C@H](NC(=O)C(C)(C)N)C(=O)N[C@@H](Cc2ccccc2)C(=O)N[C@@H](Cc2c[nH]c3ccccc23)C(=O)N[C@@H](CCCCN)C(=O)N[C@@H](Cc2ccc(O)cc2)C(=O)N1)C(=O)O (H-[Aib]CFWKYCV-OH; disulfide 2-7)", "=", 0.00562),
    ("CC(C)[C@H](NC(=O)[C@@H]1CSSC[C@H](NC(=O)[C@@H]2CCC(=O)N2)C(=O)N[C@@H](Cc2ccccc2)C(=O)N[C@@H](Cc2c[nH]c3ccccc23)C(=O)N[C@@H](CCCCN)C(=O)N[C@@H](Cc2ccc(O)cc2)C(=O)N1)C(=O)O ([pGlu]CFWKYCV-OH; disulfide 2-7)", "=", 0.00589),
    ("CC(C)[C@H](NC(=O)[C@@H]1CSSC[C@H](NC(=O)[C@@H](N)CC(=O)O)C(=O)N[C@@H](Cc2ccccc2)C(=O)N[C@@H](Cc2c[nH]c3ccccc23)C(=O)N[C@@H](CCCCN)C(=O)N[C@@H](Cc2ccc(C(C)(C)C)cc2)C(=O)N1)C(=O)O (H-DCFWK[Phe(4-tBu)]CV-OH; disulfide 2-7)", "=", 0.0234),
    ("CC(C)[C@H](NC(=O)[C@@H]1CSSC[C@H](NC(=O)[C@@H](N)CC(=O)O)C(=O)N2[C@@H](C[C@@H]3CCCC[C@@H]32)C(=O)N[C@@H](Cc2c[nH]c3ccccc23)C(=O)N[C@@H](CCCCN)C(=O)N[C@@H](Cc2ccc(O)cc2)C(=O)N1)C(=O)O (H-DC[Oic]WKYCV-OH; disulfide 2-7)", ">", 10),
]

====

Test Target: Urotensin-2 receptor (Homo sapiens)
Sequence (Q9UKP6 whole entry): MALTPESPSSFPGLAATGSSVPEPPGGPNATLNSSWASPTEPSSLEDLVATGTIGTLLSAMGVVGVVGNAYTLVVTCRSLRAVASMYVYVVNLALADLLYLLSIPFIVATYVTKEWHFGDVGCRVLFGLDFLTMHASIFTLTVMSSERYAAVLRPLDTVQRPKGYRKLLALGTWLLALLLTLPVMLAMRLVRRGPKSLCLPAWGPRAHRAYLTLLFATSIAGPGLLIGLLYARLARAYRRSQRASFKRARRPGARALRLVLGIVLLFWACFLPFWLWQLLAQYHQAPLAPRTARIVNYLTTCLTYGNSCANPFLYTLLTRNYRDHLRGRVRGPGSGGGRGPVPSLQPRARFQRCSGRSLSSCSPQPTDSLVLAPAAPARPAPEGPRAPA
Experiment Description: Displacement of [125I]human urotensin-2 from human GPR14 transfected in CHO cells
Assay type: cell-based
Condition Summary: cho
Positions of bridges follow the written chain, without caps; N, C: chain ends. Non-standard residues stand in square brackets, D forms with d. Residues, ends and D or L forms follow the SMILES beside them. Phe(4-tBu) = CC(C)(C)c1ccc(C[C@H](N)C(=O)O)cc1; Oic = O=C(O)[C@@H]1C[C@@H]2CCCC[C@@H]2N1; Bta = N[C@@H](Cc1csc2ccccc12)C(=O)O; 2Thi = N[C@@H](Cc1cccs1)C(=O)O

# Compound, Test Target, Qualifier, Log Ki
data = [
    ("CC(C)[C@H](NC(=O)[C@@H]1CSSC[C@H](NC(=O)[C@@H](N)CC(=O)O)C(=O)N[C@@H](Cc2cccs2)C(=O)N[C@@H](Cc2c[nH]c3ccccc23)C(=O)N[C@@H](CCCCN)C(=O)N[C@@H](Cc2ccc(O)cc2)C(=O)N1)C(=O)O (H-DC[2Thi]WKYCV-OH; disulfide 2-7)", "Urotensin-2 receptor (Homo sapiens)", "=", -8.54),
    ("CC(C)[C@H](NC(=O)[C@@H]1CSSC[C@H](NC(=O)[C@@H](N)CC(=O)O)C(=O)N[C@@H](Cc2csc3ccccc23)C(=O)N[C@@H](Cc2c[nH]c3ccccc23)C(=O)N[C@@H](CCCCN)C(=O)N[C@@H](Cc2ccc(O)cc2)C(=O)N1)C(=O)O (H-DC[Bta]WKYCV-OH; disulfide 2-7)", "Urotensin-2 receptor (Homo sapiens)", "=", -8.95),
    ("CC(C)[C@H](NC(=O)[C@@H]1CSSC[C@H](NC(=O)[C@@H](N)CC(=O)O)C(=O)N2[C@@H](C[C@@H]3CCCC[C@@H]32)C(=O)N[C@@H](Cc2c[nH]c3ccccc23)C(=O)N[C@@H](CCCCN)C(=O)N[C@@H](Cc2ccc(O)cc2)C(=O)N1)C(=O)O (H-DC[Oic]WKYCV-OH; disulfide 2-7)", "Urotensin-2 receptor (Homo sapiens)", "<", -5),
    ("CC(C)[C@H](NC(=O)[C@@H]1CSSC[C@H](NC(=O)[C@@H](N)CC(=O)O)C(=O)N[C@@H](Cc2ccc(C(C)(C)C)cc2)C(=O)N[C@@H](Cc2c[nH]c3ccccc23)C(=O)N[C@@H](CCCCN)C(=O)N[C@@H](Cc2ccc(O)cc2)C(=O)N1)C(=O)O (H-DC[Phe(4-tBu)]WKYCV-OH; disulfide 2-7)", "Urotensin-2 receptor (Homo sapiens)", "=", -7.63),
]
